# System: Escherichia coli TOP10
# protocol.description: shrunken log2 fold change of peptide-encoding DNA abundance (4.5 h post-induction vs induction); higher = less antimicrobial activity (less host growth inhibition)
# measurement.context: time post-induction: 4.5 h; library: site-saturation at positions 5, 18, 19, 20
Provide the recorded shrunken log2 fold change for the entries that follow.
Number only, no unit.

Q: Requested read-out shrunken log2 fold change, target or system Escherichia coli TOP10, entry RRIRSRPPRLPRPRPRPALMPRP
Ans: 0.323

Q: Requested read-out shrunken log2 fold change, target or system Escherichia coli TOP10, entry RRIRKRPPRLPRPRPRPMMFPRP
Ans: -0.0431

Q: Requested read-out shrunken log2 fold change, target or system Escherichia coli TOP10, entry RRIRHRPPRLPRPRPRPGQHPRP
Ans: -0.372

Q: Requested read-out shrunken log2 fold change, target or system Escherichia coli TOP10, entry RRIRKRPPRLPRPRPRPMFCPRP
Ans: 0.0792

Q: Requested read-out shrunken log2 fold change, target or system Escherichia coli TOP10, entry RRIRDRPPRLPRPRPRPIWYPRP
Ans: -0.0481

Q: Requested read-out shrunken log2 fold change, target or system Escherichia coli TOP10, entry RRIRNRPPRLPRPRPRPWEFPRP
Ans: -0.00197

Q: Requested read-out shrunken log2 fold change, target or system Escherichia coli TOP10, entry RRIRCRPPRLPRPRPRPEVDPRP
Ans: 0.0462

Q: Requested read-out shrunken log2 fold change, target or system Escherichia coli TOP10, entry RRIRDRPPRLPRPRPRPTDGPRP
Ans: -0.107

Q: Requested read-out shrunken log2 fold change, target or system Escherichia coli TOP10, entry RRIRYRPPRLPRPRPRPFGHPRP
Ans: -0.15

Q: Requested read-out shrunken log2 fold change, target or system Escherichia coli TOP10, entry RRIRQRPPRLPRPRPRPDYKPRP
Ans: -0.0788

Q: Requested read-out shrunken log2 fold change, target or system Escherichia coli TOP10, entry RRIRDRPPRLPRPRPRPICQPRP
Ans: 0.0244

Q: Requested read-out shrunken log2 fold change, target or system Escherichia coli TOP10, entry RRIRLRPPRLPRPRPRPMKCPRP
Ans: 0.131

Q: Requested read-out shrunken log2 fold change, target or system Escherichia coli TOP10, entry RRIRKRPPRLPRPRPRPVQTPRP
Ans: 0.914

Q: Requested read-out shrunken log2 fold change, target or system Escherichia coli TOP10, entry RRIRERPPRLPRPRPRPIPSPRP
Ans: -0.109

Q: Requested read-out shrunken log2 fold change, target or system Escherichia coli TOP10, entry RRIRCRPPRLPRPRPRPYLFPRP;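 also: peptides expressed intracellularly from a pBAD plasmid library in pooled LB shake-flask culture, induced with 0.3% L-arabinose, DNA abundance read by NGS, three biological replicates, DESeq2 with apeglm shrinkage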
Ans: -1.19
